Catalogue of protease stability score readings, one per entry.
experiment: protease stability score; higher = more stable; yeast display proteolysis, trypsin and chymotrypsin;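 also: relative to predicted unfolded state with 0 unfolded-like and 1 meaning tenfold more protease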
// return a plain number; no unit text

For orientation, consider the following solved cases.
Query: Provide protease stability score value for the following sequence: SEDEEWVRRKVERWIRAFKTGNFEELRRNADPDTRIHINGVNFHGREDFEKFVTELMRRVKNARIDVHRLELQGEFIHSDETEDVNGVEHHVRFTYRKIDGRWSLHSIEFH
Result: 1.59

Query: Provide protease stability score value for the following sequence: DEEHRDFKHLIKIFDDSVETGDEETFHKLLDPDVRIRVGDWQLVGREEARRVFQQIRIIIHSNRIHDVKVINGKIHADTHVDFRIEVGDKTVRERSRTIIYLDKVNGVWTIHSIEFK
Result: 1.08

Query: Provide protease stability score value for the following sequence: SEEEESARRAWEKILHVLETGDERDSRRLMDPDTKIEQGDKTEHGMEKIAKMITEWRFHDVKLTDMRVIGDKVEIDGTVRGEFDGREYKIHVFILVVKINGRWVIHKTVLG
Result: 1.06

Query: Provide protease stability score value for the following sequence: SEKEEQARKLAKDWSHDTDTGDFKSIFDLIDPDVRVEIGDKRFVGWELVVKWHEHHRHEFGVTQIRHRVDDMELQGEKVIVRGTLIYDGVDFKVHLILEVINGRIRRVEIRIE
Result: 1.04

Query: Provide protease stability score value for the following sequence: DEDDENIEKVLRTLFKLIHTGDWRTWLRFFDPHVKLEIGDKRLHGREVAEEFIRHRIEHLGVDRVEVRLHSFDKQGNKLHSDMRLYVGDKEFNVEMHMEKVNGKWIVRVFSID
Result: 1.38

Now for a further sequence.
Query: Provide protease stability score value for the following sequence: SELEELTEEAVKHILHIWETGDEEMSHDLVDPHVRVHVNGQKYHGRENAVEHISKLKGAKWHLRRFEVIDGKIHVDGQFHFNGRHHEVRVVIRKINGRWLIHEIQID
Result: 1.77

###

Catalogue of protease stability score readings, one per entry.
assay: protease stability score; higher = more stable; yeast display proteolysis, trypsin and chymotrypsin;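 also: relative to predicted unfolded state with 0 unfolded-like and 1 meaning tenfold more protease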

Query: Provide protease stability score value for the following sequence: TEEEHLLKKLAELVWEAVETGDEDFLKKLVDPHTRLHVDGREHHGREDFIEILTRMGVDHHRLEHFRVIDGKLFIDGHFNFNGRYFRVHIIFIIINGRAKEFWMRTE
Result: 1.66

Query: Provide protease stability score value for the following sequence: NKHERDAEHFIKEWWHDVHTGDEDHYLKRLDPNMRVDINGQEFHGREKVLTFFHEHSRHLGIDHLIIDHVRIRVQGNKIEEEVEGENVFNGKRLEVRFHFVARKIDGRWELEHLTVRIS
Result: 0.724

Now for a further sequence.
Query: Provide protease stability score value for the following sequence: DHEHRELRELIHRIEKNIRTGNWDVVEKMLDPHARIDIDGKEIHGRDRLVEEMVKQWEKMGVDHIEIKLEDYKVSENEVYLDMIFVIRVGDKVIFIDSHIISRKIDGRWIIHSIHFR
Result: 1.95

###

Catalogue of protease stability score readings, one per entry.
experiment: protease stability score; higher = more stable; yeast display proteolysis, trypsin and chymotrypsin;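 also: relative to predicted unfolded state with 0 unfolded-like and 1 meaning tenfold more protease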

For orientation, consider the following solved cases.
Query: Provide protease stability score value for the following sequence: DEDTHEFRHFIELRRHNLETGNERALAELLDPNVRILFDGVDIVGRDSWIKHLRELGYEQVDSRVNIKRLEIWNGRAHMDGRVRRHFDGKTTEVDVHLVLVKFNGRWVIESIHNH
Result: 0.555

Query: Provide protease stability score value for the following sequence: DHRDRYAEEVAHRLLKLRHTGDEEIYHEFADPNDRLIIWIGDKSIHSHGRSLVVQVLRRLHEHWRLEDMFIHDEKLVGEKSNMDIHVVGNINGKRMETTEKFTVRVINGRLHTLEIHLD
Result: 0.474

Further cases:
Query: Provide protease stability score value for the following sequence: DEETEDLRRWFEALLRSTHTGDFHTLNRLIDPNVRMDVGDKRHHGREFFEHLLRRADHIKIELEDYEFQGNKVIFHGKLIIHYNGQDLEYKSSMDAEKVDGRWIVRRVYLE
Result: 1.58

###

assay: protease stability score; higher = more stable; yeast display proteolysis, trypsin and chymotrypsin;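 also: relative to predicted unfolded state with 0 unfolded-like and 1 meaning tenfold more protease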
PARAMETER: protease stability score
// return a plain number; no unit text

For orientation, consider the following solved cases.
Query: Provide protease stability score value for the following sequence: DEDTARKQVQIYKDNDPNQLVRMFDENARLKVGDQTVDGREELERWVKRLRTRVDRYSYKNVDIQGERVVIDMVMVVDGKQVEFVVEFVVEDGRIKNAKVQARNKDEETKLQEAIG
Result: 1.37

Query: Provide protease stability score value for the following sequence: DEEEKEAREALEEFIRSVHTGDEDHMVWMFDPNTRIEVGDKKLHGRELAEEFAERWKKHIRLEDVNLTEVHVQGEKVHIRGILHGTVGDKEVRRESEVMMLKVDGRWFLHSIKFK
Result: 0.463

Query: Provide protease stability score value for the following sequence: TEEEELAHEALRRFTREWVTGDEDLLQNLLDPHTKIEIDGRELHGWHEMVRYYRHLGFDVNEFHLHRFHIQGDKIRVDGELRFHVDGRTHTIRFTIVARKVNGKWLNTHEHYK
Result: 0.721

Query: Provide protease stability score value for the following sequence: DDWEEVTRRSVEEFIRAIDTGDEDFLRTMVDPDTRVEINGVEVHGMEELMRLFSEHIKKVKNIRFHLEIRHVESQGDKIRIEGHEESNVDGRHRKKSTEMHWIKVDGRWFLHRVILR
Result: 1.39

Query: Provide protease stability score value for the following sequence: DEREELVTRFWKFFVEASRTGDWRKLEDRADPHVRLHIDGVDLHGREEFAEEHRRHLKKFKNVKIHYEIHDMDIQGEKVHVDYRIRLDIGDKRTENIIRMDIVKIDGKWLIQEMHVD
Result: 0.89

Query: Provide protease stability score value for the following sequence: DESRKAMRIALEIIEHMWRTGDETLRHELADPNTRVRIGDKELHGREELIRLWKELGFKHIEEIDLESIFVQGDKIHIDTRVHGEINGRHEVMRVVLIIHKIDGKWLIHSESHR
Result: 1.49

Query: Provide protease stability score value for the following sequence: DEDEHDAEIWVRLVLKSLRTGDEEFLVKMADPNVRVEVGDKKDHGRNEFRKVVHKFKGVRREIHHVDVHIQGNKAEVEIHGKLNINGVEVHIIHIIRSEKVDGQWYISEVWIIIR
Result: 1.55

Query: Provide protease stability score value for the following sequence: EEHHEITKDLIELLERTMKTGDEDILRKMADPHTKVEQGDKRIIGRDEFQEEWVEWMRRVDHAEVRLTDFREFPNHLELHGTLDVNINGRDIRIEIQIIVSKFDGRWSLHSISFR
Result: 0.107

Query: Provide protease stability score value for the following sequence: DEDKEESEKFFRDMHRAAETGDWREHLRLMDPHVRLVVGEYQHHGRETFEEILTEWFERVDHQELVIRHVRVYDGVADLDGEIIYHYGDKIIFVRYTIHVRKVDGRWRIKHIRIE
Result: 0.476

Query: Provide protease stability score value for the following sequence: TEEERDTKIAVDLFEEYSRTGNEDNMRELADPNVRLKINGVDYVGWKHMTKLLNHWRVKTVNIRHVEIQGDYARSDVEEEVLINGKEDRRTSRLILFKVNGRWIIKSLEFD
Result: 1.28

Further cases:
Query: Provide protease stability score value for the following sequence: TEEDELYRLLREHLKHVIETGDEELTQKNLDPHVKVELQIGDKKFTLHGRDQFTQWWKELHEKVKNIRFEDRHVQFFDGVAVVHVEINVNGRHIELIVIAEKVNGQWRIKHVEIRFL
Result: 1.53

Query: Provide protease stability score value for the following sequence: SEEREDIREIIEILLHHIHTGDWREVTNLMDPNALLVYGDKIFIGREEFHKVIKRHSEEWRIHHVELKDIEVQGNKAHVDGRLDGEIDGRRVTLTTEIIAVKINGRWHVHEIVLK
Result: 1.23

Query: Provide protease stability score value for the following sequence: NHDEEHLKRLLEDEREMLETGNEDEIRRLLDPHVRLDIDGRNIHGREEVAKWMVKLALRVDVFIIRVKRFHIQGDYIYFDTHIEEIVNGQHISFDVMIIIWKYNGRWLIHSIIVR
Result: 1.58

Query: Provide protease stability score value for the following sequence: DELTRQMRTFAERWIHAERTGDEEILRELMDPHAKLDVKQGDKRHDWHGRERITEFIRRMGIKHIQVDHVELQGEKIHMHVTMYVDGQVLDSTLKLWVVDGVTKSVEIEFK
Result: 1.2

Query: Provide protease stability score value for the following sequence: SEEEELWEELKELSEEWFETGDEDRLLEMADPHVKVVFNGKHEHGREALRLVLETMKRRFKNATYHPHTIELQGEKVFLKIKVRVGDKEQELEIILIIVDGRLKEIRIHIRIK
Result: 2.62

Query: Provide protease stability score value for the following sequence: DEEDQDWERILEELLRSLLTGDEEFIRRLIDPNVRMHIKQGDKRINLHGRDAIEKLLELLHRRIKGVRIEIKRHDIQGDKIYVDGVINIDGKEFKIIIHIIVINGRLHTVSFETE
Result: 1.9

Query: Provide protease stability score value for the following sequence: DEEEETLRWVKELLKHLSKTGDFEKIVNYMDPDVRLNVDGVELVGMHHLERLAKEIRFKIHDLHPRRERIFDGKIQMDVEIDRIIHYGDKTTRERTTIIIIFEKVNGRWLIHTIHVH
Result: 1.17
